Experiment: Dienol (4) Log P determination by reverse-phase HPLC
Assay type: physicochemical
Settings: retention factor at 100% buffer, extrapolated from HPLC retention factors at MeOH:buffer 45:55→60:40, 25° C.
Answer FALSE if Calculated kw is under 0.8, and TRUE if it is 0.8 or more.

Take a look at these entries with their results.
[Q] hey, is Calculated kw for this one >= 0.8? O=C(CCCCCCCCC(=O)OCc1cc(=O)c(O)co1)OCc1cc(=O)c(O)co1 [Compound 4d, KA (sebacic) Dienol]
[A] TRUE

[Q] hey, is Calculated kw for this one >= 0.8? `O=C(COCCOCCOCC(=O)OCc1cc(=O)c(O)co1)OCc1cc(=O)c(O)co1`
[A] FALSE

[Q] hey, is Calculated kw for this one >= 0.8? `O=C(CCCCC(=O)OCc1cc(=O)c(O)co1)OCc1cc(=O)c(O)co1`
[A] TRUE

Read the next record carefully.
[Q] hey, is Calculated kw for this one >= 0.8? `O=C(CCCCCCCC(=O)OCc1cc(=O)c(O)co1)OCc1cc(=O)c(O)co1`
[A] TRUE

* * *

Test: Dienol (4) Log P determination by reverse-phase HPLC
Format: physicochemical
Details: from HPLC log kw via calibration curve of reference samples' published Log Po,w; read-out: Calculated Log P Values
Answer false if chromatographic logP is under 3, and true if it is 3 or more.

[Q] hey, is chromatographic logP for this one >= 3? `O=C(CCCCCCCC(=O)OCc1cc(=O)c(O)co1)OCc1cc(=O)c(O)co1`
[A] false

[Q] hey, is chromatographic logP for this one >= 3? O=C(CCC(=O)OCc1cc(=O)c(O)co1)OCc1cc(=O)c(O)co1 [Compound 4a, KA (succinic) Dienol]
[A] false

Others:
[Q] hey, is chromatographic logP for this one >= 3? `O=C(CCCCC(=O)OCc1cc(=O)c(O)co1)OCc1cc(=O)c(O)co1`
[A] false

[Q] hey, is chromatographic logP for this one >= 3? O=C(CCCCCCCCC(=O)OCc1cc(=O)c(O)co1)OCc1cc(=O)c(O)co1 [Compound 4d, KA (sebacic) Dienol]
[A] true

[Q] hey, is chromatographic logP for this one >= 3? `O=C(COCCOCCOCC(=O)OCc1cc(=O)c(O)co1)OCc1cc(=O)c(O)co1`
[A] false
